Just for reference, patent US8586604B2 is where these values come from.

Experimental System: recombinant human mPGES-1 (Homo sapiens)
Sequence (O14684 whole entry): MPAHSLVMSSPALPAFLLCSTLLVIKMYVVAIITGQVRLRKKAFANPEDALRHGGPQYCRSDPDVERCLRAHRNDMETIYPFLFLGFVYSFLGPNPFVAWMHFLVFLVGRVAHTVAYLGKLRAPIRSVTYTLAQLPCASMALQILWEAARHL
Assay Name: mPGES-1 enzyme assay (HTRF detection of PGE2)
Condition Label: recombinant human mPGES-1 microsomes, PGH2 2 μM, read-out: mPGES-1 inhibitory effect IC50
Attribute: log10(IC50)
Hello, just confirming the data are log10 of IC50 with units of nM.

COCCOc1nc2nc(Nc3cc(CNC(=O)C4(C(F)(F)F)CC4)ccc3Cl)[nH]c2cc1C(=O)N[C@H]1CC[C@H](C(F)(F)F)CC1 [Example 3] : 1.32

Lookup: log10(IC50) / recombinant human mPGES-1 (Homo sapiens) / Cn1c(Nc2c(F)ccc(CNC(=O)C(C)(C)C)c2F)nc2cc(C(=O)N[C@H]3CC[C@H](C(F)(F)F)CC3)c(OCC(F)F)nc21 [Example 10]
0.70

Lookup: log10(IC50) / recombinant human mPGES-1 (Homo sapiens) / Cn1c(Nc2cc(CNC(=O)C(C)(C)C)ccc2Cl)nc2cc(C(=O)N[C@H]3CC[C@H](C(F)(F)F)CC3)c(OCC(F)F)nc21 [Example 2]
0.48

Lookup: log10(IC50) / recombinant human mPGES-1 (Homo sapiens) / CC(C)(C)C(=O)NCc1ccc(Cl)c(Nc2nc3cc(C(=O)N[C@H]4CC[C@H](C(F)(F)F)CC4)c(OCC(F)F)nc3n2CC(F)F)c1Cl [Example 15]
0.60

Lookup: log10(IC50) / recombinant human mPGES-1 (Homo sapiens) / O=C(N[C@H]1CC[C@H](C(F)(F)F)CC1)c1cc2nc(Nc3c(Cl)ccc(CNC(=O)C4(C(F)(F)F)CC4)c3Cl)[nH]c2nc1OCCOC(F)F [Example 12]
0.00

Lookup: log10(IC50) / recombinant human mPGES-1 (Homo sapiens) / CC(C)(C)C(=O)NCc1ccc(Cl)c(Nc2nc3cc(C(=O)Nc4ccc(F)c(Cl)c4)c(OCC(F)F)nc3[nH]2)c1Cl [Example 157]
0.30

Lookup: log10(IC50) / recombinant human mPGES-1 (Homo sapiens) / Cn1c(Nc2c(Cl)ccc(CNC(=O)C(C)(C)C)c2Cl)nc2cc(C(=O)N[C@H]3CC[C@H](C(F)(F)F)CC3)c(OCC(F)F)nc21 [Example 9]
0.78

Lookup: log10(IC50) / recombinant human mPGES-1 (Homo sapiens) / Cn1c(Nc2cc(CNC(=O)C3(C(F)(F)F)CC3)ccc2Cl)nc2cc(C(=O)N[C@H]3CC[C@H](C(F)(F)F)CC3)c(OCCF)nc21 [Example 6]
0.60

Lookup: log10(IC50) / recombinant human mPGES-1 (Homo sapiens) / CC(C)(C)C(=O)NCc1ccc(Cl)c(Nc2nc3cc(C(=O)N[C@H]4CC[C@H](C(F)(F)F)CC4)c(OCC(F)F)nc3[nH]2)c1Cl [Example 8]
0.48
